Property: IC50; scope: individual compounds
# target: Recombinant purified human BTK (Homo sapiens (Human), UniProt Q06187)
# Sequence (Q06187 whole entry): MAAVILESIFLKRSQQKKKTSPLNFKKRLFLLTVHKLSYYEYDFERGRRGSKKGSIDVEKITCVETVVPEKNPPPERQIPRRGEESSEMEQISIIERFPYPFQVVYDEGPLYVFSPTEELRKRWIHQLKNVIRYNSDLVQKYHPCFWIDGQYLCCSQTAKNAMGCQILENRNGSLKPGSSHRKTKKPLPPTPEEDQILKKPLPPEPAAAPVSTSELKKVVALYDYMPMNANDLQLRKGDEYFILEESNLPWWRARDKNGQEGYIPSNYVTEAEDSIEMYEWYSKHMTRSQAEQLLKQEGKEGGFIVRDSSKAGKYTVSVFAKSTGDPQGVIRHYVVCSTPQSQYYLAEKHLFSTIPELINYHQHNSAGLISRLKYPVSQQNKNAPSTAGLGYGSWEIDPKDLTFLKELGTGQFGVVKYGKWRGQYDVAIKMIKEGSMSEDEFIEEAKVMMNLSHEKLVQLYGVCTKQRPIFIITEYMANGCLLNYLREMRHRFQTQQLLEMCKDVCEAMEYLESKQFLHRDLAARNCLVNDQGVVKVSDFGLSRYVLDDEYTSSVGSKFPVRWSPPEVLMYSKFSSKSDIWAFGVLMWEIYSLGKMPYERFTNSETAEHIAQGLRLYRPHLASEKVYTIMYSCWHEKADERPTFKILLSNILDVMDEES
# experiment: BTK kinase inhibitory activity, ADP-Glo kinase assay kit (Promega V9071)
# Type: biochemical
# testSettings: ATP 10 uM, 8 ng BTK per reaction, 1 hour at 30° C., chemiluminescence
Report only the number, with the unit nM understood.

C=CC(=O)Nc1cccc(Oc2nc(Nc3ccc(CN(C)C)cc3)nn3cccc23)c1	104
C=CC(=O)Nc1ccc(F)c(Oc2nc(Nc3cnn(CC(F)(F)F)c3)nn3cccc23)c1	16.5
C=CC(=O)Nc1ccc(F)c(Oc2nc(Nc3cnoc3)nn3cccc23)c1	206
C=CC(=O)Nc1ccc(F)c(Oc2nc(Nc3cnn(CCC)c3)nn3cccc23)c1	9.1
C=CC(=O)Nc1ccc(F)c(Oc2nc(Nc3cnn(CC(F)F)c3)nn3cccc23)c1	6.2
C=CC(=O)Nc1ccc(F)c(Oc2nc(Nc3cnn(CCOC)c3)nn3cccc23)c1	23
C=CC(=O)Nc1ccc(F)c(Oc2nc(Nc3cnn(CCN4CCOCC4)c3)nn3cccc23)c1	3.5
C=CC(=O)Nc1ccc(F)c(Oc2nc(Nc3cc(C)ns3)nn3cccc23)c1	10.7

Query: IC50; subject: `C=CC(=O)Nc1cccc(Oc2nc(Nc3cnn(C)c3)nn3cccc23)c1`
Response: 12.7

Query: Find the recorded IC50 belonging to `C=CC(=O)Nc1ccc(F)c(Oc2nc(Nc3ccc4ncsc4c3)nn3cccc23)c1` and report it.
Response: 43.3

Query: Entry `C=CC(=O)Nc1ccc(F)c(Oc2nc(Nc3ccc(C(=O)N4CCOCC4)cc3)nn3cccc23)c1` has what IC50?
Response: 23.1

Query: Which measured IC50 value corresponds to `C=CC(=O)Nc1cccc(Oc2nc(Nc3cnn(CC(F)F)c3)nn3cccc23)c1` ?
Response: 13.4

Query: # query: IC50 of entry `CCn1cc(Nc2nc(Oc3cc(NC(=O)/C=C/CCl)ccc3F)c3cccn3n2)cn1`
Response: 114
